ASSAY_COMMENT: plasma concentration of itraconazole required for clinical benefit in humans with cancer
Format: in vivo
MEASUREMENT_PARAMETERS: human, after 4 weeks of therapy, read-out: minimum plasma trough level required to have a clinically significant effect
PARAMETER_MEASURED: concentration at 4 weeks

Prompt: Indicate its recorded concentration at 4 weeks; the compound in question is CCC(C)n1ncn(-c2ccc(N3CCN(c4ccc(OCC5COC(Cn6cncn6)(c6ccc(Cl)cc6Cl)O5)cc4)CC3)cc2)c1=O (stereo not shown) [itraconazole]
Completion: ≥ 1000 ng/mL
